Item-by-item account of cytotoxicity at 70.5 h
Assay: Human HepG2 cell viability assay in 384 well format
Format: toxicity, cell-based
Design: dose 125 nL, time 70.5 hour; concentration not given beside the values
Conditions: HepG2 cells, read-out: Inhibition
QUANTITY_MEASURED: cytotoxicity at 70.5 h (%)

COMPOUND	NUMBER
CC(=O)N1CCC(c2cnc(-c3c(C)nn(C)c3C)cn2)CC1	-9.85
CCC(=O)Nc1nnc(CCCOc2ccccc2)s1	-13.1
CCN1CCN(C[C@@H]2CN(c3ncc(Cl)cc3F)C[C@@H]2CO)CC1	-10.9
CN(C)c1no[n+]([O-])c1-c1ccccc1	20.3
CCc1nc(N2CCN(Cc3ncccc3C)CC2)c2cnn(C)c2n1	-4.75
CCn1cc(NC(=O)C2CCC(=O)N2Cc2ccc(C)o2)cn1 (stereo not drawn)	-2.42
CNc1ncc(CN(C)c2nc(C3CCCC3)nc3c2cnn3C)cn1	6.56
COC(=O)[C@H](CCSC)NC(=O)Cc1c(C)nn(-c2ccccc2)c1C	-11.6
COCc1noc(-c2ccc(N3CCCCC3CO)nc2)n1 (stereo not drawn)	-6.84
CCOCC(=O)N1CCC(C2CCN(Cc3ccc(Cl)cc3)C2)CC1 (stereo not drawn)	-2.4
Cc1ncc(CNC(=O)N(C)C2CCN(c3ccccc3)C2=O)s1 (stereo not drawn)	3.88
COCCN1CCO[C@@H]2CN(C(=O)Cc3ccc(F)cc3)CC[C@@H]2C1	4.68
O=C1Nc2ccccc2C12CCN(Cc1nccs1)CC2	-1.05
CC(Nc1cccc(F)c1C#N)c1cccc(S(N)(=O)=O)c1 (stereo not drawn)	-8.67
CC1(C)CN(Cc2ccncc2)CCS1(=O)=O	24.1
COCCNc1ccc(CC2CCCN(Cc3c[nH]cn3)C2)nn1 (stereo not drawn)	-0.712
N#Cc1cn(C2CC2)c(=O)n(Cc2noc(-c3cccs3)n2)c1=O	-4.93
O=C1CC2(CCCNC2)C(=O)N1Cc1ccc(F)cc1 (stereo not drawn)	-10.9
CCN1C(=O)CC(c2ccccc2)C12CCN(CC1CCOCC1)CC2 (stereo not drawn)	-8.46
Cc1cc2occ(CC(=O)N3CCC4(CCCN(C)C4=O)C3)c2cc1Cl (stereo not drawn)	-8.33
O=C(c1cscn1)N1CCC2(CC1)CCN(S(=O)(=O)c1ccccc1)C2	-8.17
O=C(Nc1nc2c(s1)CN(S(=O)(=O)C1CC1)CC2)c1ccccn1	-1.49
Cc1nc(CO[C@@H]2CN(Cc3ccsc3)[C@@H]3COC[C@@H]32)cs1	-6.52
